Listed next: entries and their corresponding total protein half-life in vivo.
- Method Description: total protein half-life in vivo (active degradation + dilution); higher = more stable protein
- Assay Setup: wild type E. coli NCM3722; growth: C-lim chemostat; doubling time 12 h
Report the value in h with no unit label.

MRVLGIETSCDETGIAIYDDEKGLLANQLYSQVKLHADYGGVVPELASRDHVRKTVPLIQAALKESGLTAKDIDAVAYTAGPGLVGALLVGATVGRSLAFAWDVPAIPVHHMEGHLLAPMLEDNPPEFPFVALLVSGGHTQLISVTGIGQYELLGESIDDAAGEAFDKTAKLLGLDYPGGPLLSKMAAQGTAGRFVFPRPMTDRPGLDFSFSGLKTFAANTIRDNGTDDQTRADIARAFEDAVVDTLMIKCKRALDQTGFKRLVMAGGVSANRTLRAKLAEMMKKRRGEVFYARPEFCTDNGAMIAYAGMVRFKAGATADLGVSVRPRWPLAELPAA | 7.77

# input Entry MSEKLQKVLARAGHGSRREIESIIEAGRVSVDGKIAKLGDRVEVTPGLKIRIDGHLISVRESAEQICRVLAYYKPEGELCTRNDPEGRPTVFDRLPKLRGARWIAVGRLDVNTCGLLLFTTDGELANRLMHPSREVEREYAVRVFGQVDDAKLRDLSRGVQLEDGPAAFKTIKFSGGEGINQWYNVTLTEGRNREVRRLWEAVGVQVSRLIRVRYGDIPLPKGLPRGGWTELDLAQTNYLRELVELPPETSSKVAVEKDRRRMKANQIRRAVKRHSQVSGGRRSGGRNNNG : reported total protein half-life in vivo = ?
# output 10.4

# input Give its total protein half-life in vivo value. Item: MQWQTKLPLIAILRGITPDEALAHVGAVIDAGFDAVEIPLNSPQWEQSIPAIVDAYGDKALIGAGTVLKPEQVDALARMGCQLIVTPNIHSEVIRRAVGYGMTVCPGCATATEAFTALEAGAQALKIFPSSAFGPQYIKALKAVLPSDIAVFAVGGVTPENLAQWIDAGCAGAGLGSDLYRAGQSVERTAQQAAAFVKAYREAVQ [Q6BF16]
# output 8.18

Source listed as the supplement of paper PMC11246515.
